# system-name: CD95/FADD interaction (DD-FADD/DD-CD95) (Homo sapiens, UniProt P25445+Q13158)
# Construct: DD corresponds to amino acids 210 to 303 of CD95
# Sequence (P25445 226-319 limits assumed): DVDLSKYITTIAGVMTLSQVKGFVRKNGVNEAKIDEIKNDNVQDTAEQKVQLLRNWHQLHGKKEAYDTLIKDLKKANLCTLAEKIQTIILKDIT
# Sequence (Q13158 97-181 limits assumed): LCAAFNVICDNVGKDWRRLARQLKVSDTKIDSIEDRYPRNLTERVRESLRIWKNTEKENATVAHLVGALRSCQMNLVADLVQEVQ
# experiment-notes: Renilla luciferase protein-fragment complementation assay (PCA), DD-FADD-F1 / DD-CD95-F2
# condition-parameters: HEK293T cells, exposed 4 h, luminescence
pIC50: −log10 of the molar value.
Values of pIC50 greater than or equal to 3 map to true (1); values below map to false (0).

Below, 10 molecules whose answers are already recorded.
{"molecule": "N=C(N)NCCCCC(=O)N(CCNC(=O)C(Cc1cnc[nH]1)N(CCNC(=O)C(CCCNC(=N)N)N(CCN)C(=O)CCC(N)=O)C(=O)CCCCCN)C(CCCCN)C(N)=O (stereo not drawn)", "assigned-class": "true (1)"}
{"molecule": "N=C(N)NCCCCC(=O)N(CCNC(=O)C(Cc1cnc[nH]1)N(CCNC(=O)C(CCCNC(=N)N)N(CCN)C(=O)CCS)C(=O)CCCCCC(N)=O)C(CCCCN)C(N)=O (stereo not drawn)", "assigned-class": "true (1)"}
{"molecule": "N=C(N)NCCCCC(=O)N(CCNC(=O)C(Cc1cnc[nH]1)N(CCNC(=O)C(Cc1cccnc1)N(CCN)C(=O)CCS)C(=O)CCCCCN)C(CCCCN)C(N)=O (stereo not drawn)", "assigned-class": "false (0)"}
{"molecule": "CC(O)CC(=O)N(CCN)C(CS)C(=O)NCCN(C(=O)CCCCNC(=N)N)C(CCCCN)C(=O)NCCN(C(=O)CCc1c[nH]cn1)C(CCCNC(=N)N)C(=O)NCCNC(=O)CCCCCN (stereo not drawn)", "assigned-class": "true (1)"}
{"molecule": "N=C(N)NCCCCC(=O)N(CCNC(=O)C(Cc1cnc[nH]1)N(CCNC(=O)C(CCCNC(=N)N)N(CCN)C(=O)CCS)C(=O)CCC1CNc2ccccc21)C(CCCCN)C(N)=O (stereo not drawn)", "assigned-class": "true (1)"}
{"molecule": "N=C(N)NCCCCC(=O)N(CCNC(=O)C(Cc1cnc[nH]1)N(CCNC(=O)C(CCCNC(=N)N)N(CCN)C(=O)CCS)C(=O)CCCCCN)C(CCCCN)C(N)=O (stereo not drawn)", "assigned-class": "false (0)"}
{"molecule": "CC(O)C(N)C(=O)NCCN(C(=O)CCS)C(Cc1c[nH]c2ccccc12)C(=O)NCCN(C(=O)CCCCCN)C(Cc1cnc[nH]1)C(=O)NCCN(C(=O)CCCCNC(=N)N)C(CCCCN)C(N)=O (stereo not drawn)", "assigned-class": "true (1)"}
{"molecule": "CCC(=O)N(CCN)C(CCCNC(=N)N)C(=O)NCCN(C(=O)CCCCCN)C(Cc1cnc[nH]1)C(=O)NCCN(C(=O)CCCCNC(=N)N)C(CCCCN)C(N)=O (stereo not drawn)", "assigned-class": "true (1)"}
{"molecule": "N=C(N)NCCCC(C(=O)NCCN(C(=O)CCCCCN)C(Cc1cnc[nH]1)C(=O)NCCN(C(=O)CCc1c[nH]c2ccccc12)C(CCCCN)C(N)=O)N(CCN)C(=O)CCS (stereo not drawn)", "assigned-class": "false (0)"}
{"molecule": "CCCCCCCCCCCCCCCCCC(=O)N(CCN)C(CCCNC(=N)N)C(=O)NCCN(C(=O)CCCCCN)C(Cc1cnc[nH]1)C(=O)NCCN(C(=O)CCCCNC(=N)N)C(CCCCN)C(N)=O (stereo not drawn)", "assigned-class": "true (1)"}

# check: pIC50 of CC(O)CC(=O)NC(CS)C(=O)NCCN(C(=O)CCCCNC(=N)N)C(CCCCN)C(=O)NCCN(C(=O)CCc1c[nH]cn1)C(CCCNC(=N)N)C(=O)NCCNC(=O)CCCCCN (stereo not drawn) is greater than or equal to 3
true (1)

Given N=C(N)NCCCCC(=O)N(CCNC(=O)C(Cc1cnc[nH]1)N(CCNC(=O)C(CCCNC(=N)N)N(CCN)C(=O)CCS)C(=O)CCc1ccc(O)cc1)C(CCCCN)C(N)=O (stereo not drawn) , state whether its pIC50 is at least 3.
true (1)
